Data provenance is ChEMBL document CHEMBL4888484.

- Test system: Plasmodium falciparum
- protocol_description: Primary screen in NF54 nanoGlo assay, in single point, at 2uM, 72h; a lower Z score goes with more inhibition
- Assay type: functional, Erythrocyte
- condition_parameters: timepoint 72 hour
Among all 150,000 compounds or so, about 540 (0.36%) showed an effect of 50% or more. Many of the other results were omitted from the sample, so strong results are more common in it than they were.
# Z score >= 0.2 gives Yes, anything below gives No

*Q* Would you say O=C(CN(CC1CCCO1)C(=O)C1CC1(Cl)Cl)N1CCCC1 (stereo not given) shows Z score at minimum 0.2?
*A* Yes

*Q* Would you say C[C@H](CCO)NCc1sccc1Cl shows Z score at minimum 0.2?
*A* No

*Q* Would you say c1c[nH]c(-c2nc(C3CCOCC3)n[nH]2)c1 shows Z score at minimum 0.2?
*A* Yes

*Q* Would you say C[N+]1(CCCC(=O)c2ccc3c(c2)OCCO3)CCC(c2ccccc2)C1 (stereo not given) shows Z score at minimum 0.2?
*A* No

*Q* Would you say CCn1cc(NC(=O)c2cc(C3CC3)nc3onc(-c4cnn(CC)c4C)c23)c(C)n1 shows Z score at minimum 0.2?
*A* No

*Q* Would you say CCOc1ccc2nc(CN(C)[C@@H]3CCCC[C@@H]3O)ccc2c1 shows Z score at minimum 0.2?
*A* Yes

*Q* Would you say C[C@H]1CCc2c(cnc3c(C(=O)NCc4ccccc4)cnn23)C1 shows Z score at minimum 0.2?
*A* Yes

*Q* Would you say Cc1ccc([C@H]2C=NN(c3ccc(Br)cc3)C2=O)cc1 shows Z score at minimum 0.2?
*A* No

*Q* Would you say O=C(C[C@H](n1cccn1)C(F)(F)F)N1CCN(C2CC2)c2ccc(Cl)cc21 shows Z score at minimum 0.2?
*A* Yes

*Q* Would you say COc1cccc(C(=O)N2CCN(C(=O)Cn3cc(Cl)cn3)CC2)c1 shows Z score at minimum 0.2?
*A* Yes

*Q* Would you say CN(C)c1nc(N[C@H]2CCS(=O)(=O)C2)ncc1F shows Z score at minimum 0.2?
*A* Yes

*Q* Would you say CN1C(=O)CC[C@@]12CCN(C(=O)Nc1ccc3c(c1)OCCO3)C2 shows Z score at minimum 0.2?
*A* Yes

*Q* Would you say CC1CCN(Cc2ccc(-c3ncnn3C(C)(C)C)o2)CC1 shows Z score at minimum 0.2?
*A* Yes

*Q* Would you say Cc1cc2nc[nH]c2c(NC(=O)CCc2cc3n(n2)CCNC3)c1C shows Z score at minimum 0.2?
*A* Yes

*Q* Would you say COc1ccc(Cl)cc1N(Cc1ccccc1)Cc1ccccc1 shows Z score at minimum 0.2?
*A* Yes

*Q* Would you say CCC(CC)C(=O)N(Cc1ccc(-c2ccc(Cl)cc2)o1)[C@H]1CCS(=O)(=O)C1 shows Z score at minimum 0.2?
*A* Yes

*Q* Would you say COc1ccccc1N(C)Cc1c(C)noc1C shows Z score at minimum 0.2?
*A* No

*Q* Would you say CCC(=O)N(Cc1ccc(-c2ccc(Cl)cc2)o1)[C@H]1CCS(=O)(=O)C1 shows Z score at minimum 0.2?
*A* No
